# procedure_details: protein stability index of a GFP-peptide fusion (yeast GPS) (PSI 1-4); higher = more stable; sorted into four equal gates, so the index is relative within each strain
# test_settings: ubr1∆
protein stability index of 2 or higher: Criterion met. Under 2: Criterion not met.

- sequence_entry: "ESGLRPVSLLNSQLVGK [PCI8]"
  qualitative_label: "Criterion met"
- sequence_entry: "LQNKSFKSVLPIVLLNT [UBP6]"
  qualitative_label: "Criterion met"
- sequence_entry: "TGWITQSTPVLLNHGER [RPN1]"
  qualitative_label: "Criterion met"
- sequence_entry: "KTEDGFVIPALPAAVSK [RPC82]"
  qualitative_label: "Criterion met"
- sequence_entry: "GLGYVFEFQYLTIGVKF [SRB5]"
  qualitative_label: "Criterion not met"
- sequence_entry: "VIVLSNISHLLEIASSI [SWI1]"
  qualitative_label: "Criterion not met"
- sequence_entry: "DQNEFLLERTREIHNEA [FAS2]"
  qualitative_label: "Criterion met"
- sequence_entry: "AHEIIKREEKAMTIYWD [CDC53]"
  qualitative_label: "Criterion met"
- sequence_entry: "TRSWRPPQAGDRSLADD [RPB8]"
  qualitative_label: "Criterion met"
- sequence_entry: "GCDENDSTVNKSITLKG [YDL088C/ASM4]"
  qualitative_label: "Criterion met"
- sequence_entry: "ANNQEYDLNFKLRETLV [SMC1]"
  qualitative_label: "Criterion met"
- sequence_entry: "ERTKLQEHTIFTQLKKN [SNU114]"
  qualitative_label: "Criterion not met"
- sequence_entry: "GSQIKFIVVPDLLKNAP [SMD3]"
  qualitative_label: "Criterion not met"
- sequence_entry: "RIHVNPSYYGVRDTSPH [BRR2]"
  qualitative_label: "Criterion not met"
- sequence_entry: "KLNVDQFISSRQFEVKQ [POP1]"
  qualitative_label: "Criterion met"
- sequence_entry: "RFKMERAGVTHVLSRLS [RET1]"
  qualitative_label: "Criterion not met"
- sequence_entry: "YVNALADVLYKTAFKPH [QCR2]"
  qualitative_label: "Criterion met"
- sequence_entry: "SQYSTMVNIGLHNLNEY [RGR1]"
  qualitative_label: "Criterion not met"
- sequence_entry: "PIIIYGTENTERPPLLP [YOR098C/NUP1]"
  qualitative_label: "Criterion met"
- sequence_entry: "GITAVHVKIRATGGTRT [RPS14B]"
  qualitative_label: "Criterion not met"
- sequence_entry: "ELSVTGSAINHHRIFDS [YMR129W/POM152]"
  qualitative_label: "Criterion met"
- sequence_entry: "ELPTQLALEIIVRPAKG [RRP46]"
  qualitative_label: "Criterion not met"
- sequence_entry: "VELHGKRKLDIGKDTFV [PRP8]"
  qualitative_label: "Criterion met"
- sequence_entry: "TPNLWAEQPLPVSPLDI [RPS2]"
  qualitative_label: "Criterion not met"
- sequence_entry: "SLEQRTLNPDLFLYKEL [RPC82]"
  qualitative_label: "Criterion met"
- sequence_entry: "ISDYQQLESIYFRILLP [SWI1]"
  qualitative_label: "Criterion met"
- sequence_entry: "KSLAMEHKSQVVLYNYY [CSN12]"
  qualitative_label: "Criterion not met"
- sequence_entry: "ENELVITSIPKPLTENC [RMP1]"
  qualitative_label: "Criterion met"
